B1: HDV Ribozyme (parent)
chain: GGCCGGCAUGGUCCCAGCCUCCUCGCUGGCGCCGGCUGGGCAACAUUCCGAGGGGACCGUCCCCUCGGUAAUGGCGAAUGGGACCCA

Variants of: B1
Assay Notes: self-cleavage, relative activity (ratio to wild type); higher = more cleavage; co-transcriptional
Could you label it 1 if measured self-cleavage is 0.7 or higher, and 0 otherwise?

Solved entries:
Does the reported self-cleavage for G11U C44G fall at or above the 0.7 mark?
0

Does the reported self-cleavage for G28C C62A fall at or above the 0.7 mark?
0

Does the reported self-cleavage for G10U U65A fall at or above the 0.7 mark?
0

Does the reported self-cleavage for C41A G53U fall at or above the 0.7 mark?
1

Does the reported self-cleavage for U20A A43C fall at or above the 0.7 mark?
0

Does the reported self-cleavage for C3U C26U fall at or above the 0.7 mark?
0

Does the reported self-cleavage for C63G C86U fall at or above the 0.7 mark?
1

Does the reported self-cleavage for C48A G68U fall at or above the 0.7 mark?
1

Others:
Does the reported self-cleavage for G31A C64U fall at or above the 0.7 mark?
0

Does the reported self-cleavage for G54C G59C fall at or above the 0.7 mark?
1

Does the reported self-cleavage for C33A C85A fall at or above the 0.7 mark?
0

Does the reported self-cleavage for G35C C58G fall at or above the 0.7 mark?
0

Does the reported self-cleavage for U9G G81U fall at or above the 0.7 mark?
0

Does the reported self-cleavage for G29U G73U fall at or above the 0.7 mark?
0

Does the reported self-cleavage for A8U U79A fall at or above the 0.7 mark?
0
